- system: glutathione-S-transferase (GST) tagged LXRalpha LBD (ligand binding domain) (Homo sapiens)
- Construct: purchased Invitrogen pv4655
- Sequence (Q13133 209-447 limits assumed): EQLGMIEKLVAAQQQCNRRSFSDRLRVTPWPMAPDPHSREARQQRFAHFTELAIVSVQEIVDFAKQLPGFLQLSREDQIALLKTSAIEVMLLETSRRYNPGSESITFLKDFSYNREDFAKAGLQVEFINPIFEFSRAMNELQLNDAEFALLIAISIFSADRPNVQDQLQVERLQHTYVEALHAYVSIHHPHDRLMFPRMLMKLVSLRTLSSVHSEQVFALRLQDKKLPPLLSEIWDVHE
- test: LanthaScreen TR-FRET Liver X Receptor Coactivator Assay, co-activator recruitment to LXRalpha LBD
- Assay type: biochemical
- test-context: efficacy in relation to reference dual agonist T0901317; read-out: LXR alpha Activity @ max dose
# Emax >= 20% gives Yes, anything below gives No

{"columns": ["compound", "answer-label"],
 "data": [
  ["NC(=O)c1ccc(N2CCC(CC3CCN(C(=O)C(O)(c4cc(F)cc(Cl)c4)C(F)(F)F)CC3)CC2)cc1Cl (stereo not shown) [Example 12-9]", "Yes"],
  ["CN(C)C(=O)c1ccc(N2CCC(CC3CCN(S(=O)(=O)c4cccc(Br)c4)CC3)CC2)cc1Cl [Example 13-12]", "No"],
  ["CC(C)Oc1cccc([C@@](O)(C(=O)N2CCC(CC3CCN(c4ccc(C(N)=O)c(Cl)c4)CC3)CC2)C(F)(F)F)c1 [Example 12-7]", "No"],
  ["CN(C)C(=O)c1ccc(N2CCC(CC3CCN(S(=O)(=O)c4cc(F)cc(F)c4)CC3)CC2)cc1Cl [Example 13-6]", "No"],
  ["CN(C)C(=O)c1ccc(N2CCC(CC3CCN(S(=O)(=O)c4cccs4)CC3)CC2)cc1Cl [Example 13-4]", "Yes"],
  ["COc1cccc(CS(=O)(=O)N2CC(CC3CCN(c4ccc(C(=O)N(C)C)c(Cl)c4)CC3)C2)c1 [Example 13-3]", "No"],
  ["CN(C)C(=O)c1ccc(N2CCC(CC3CCN(S(=O)(=O)c4ccc(F)cc4)CC3)CC2)cc1Cl [Example 13-14]", "Yes"]
]}

The reported measurements were obtained from patent US10752587B2.
